These entries and their values trace back to ChEMBL document CHEMBL3399947.

Biological target: GABA transporter 2 (Mus musculus, UniProt P31651)
Sequence (P31651 whole entry): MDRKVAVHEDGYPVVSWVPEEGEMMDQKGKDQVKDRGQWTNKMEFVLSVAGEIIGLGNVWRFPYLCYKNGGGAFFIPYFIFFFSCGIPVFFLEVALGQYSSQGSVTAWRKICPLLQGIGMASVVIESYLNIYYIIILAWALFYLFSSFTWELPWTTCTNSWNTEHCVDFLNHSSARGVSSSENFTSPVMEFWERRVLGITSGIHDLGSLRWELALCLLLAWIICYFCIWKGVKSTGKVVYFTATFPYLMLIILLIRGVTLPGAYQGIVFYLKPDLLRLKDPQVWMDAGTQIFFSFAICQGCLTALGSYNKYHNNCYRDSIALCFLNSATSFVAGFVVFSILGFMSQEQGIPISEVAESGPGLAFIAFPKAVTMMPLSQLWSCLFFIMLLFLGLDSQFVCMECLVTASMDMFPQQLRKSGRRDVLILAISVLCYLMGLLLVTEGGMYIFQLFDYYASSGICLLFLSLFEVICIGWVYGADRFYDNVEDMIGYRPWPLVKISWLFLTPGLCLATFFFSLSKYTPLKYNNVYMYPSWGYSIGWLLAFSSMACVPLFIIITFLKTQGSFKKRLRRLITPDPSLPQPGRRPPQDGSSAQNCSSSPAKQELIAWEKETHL
Assay: Inhibition of mouse mGAT2 expressed in HEK293 cells assessed as inhibition of [3H]GABA uptake after 3 mins incubation by TopCount microplate scintillation counting analysis
Assay type: cell-based
Settings: read-out: IC50
value_kind: IC50 (µM)
One number for each entry, in µM.

Solved cases (2 shown):
smiles	assay_target	value_kind	reported_result
Cc1ccsc1C(=CCCN(C)[C@@H]1CCCC[C@H]1C(=O)O)c1sccc1C	GABA transporter 2 (Mus musculus, UniProt P31651)	IC50	133
CN(CCON=C(c1ccccc1)c1ccccc1)[C@@H]1CCCC[C@H]1C(=O)O	GABA transporter 2 (Mus musculus, UniProt P31651)	IC50	880

Let us move to another entry and its IC50.
Entry CN(CCC=C1c2ccccc2CCc2ccccc21)CCC(=O)O — recorded IC50 = 735

====

target: GABA transporter 3 (Mus musculus); test: Inhibition of mouse mGAT3 expressed in HEK293 cells assessed as inhibition of [3H]GABA uptake after 3 mins incubation by TopCount microplate scintillation counting analysis; assay type: cell-based; conditions: read-out: IC50
Sequence (P31649 whole entry): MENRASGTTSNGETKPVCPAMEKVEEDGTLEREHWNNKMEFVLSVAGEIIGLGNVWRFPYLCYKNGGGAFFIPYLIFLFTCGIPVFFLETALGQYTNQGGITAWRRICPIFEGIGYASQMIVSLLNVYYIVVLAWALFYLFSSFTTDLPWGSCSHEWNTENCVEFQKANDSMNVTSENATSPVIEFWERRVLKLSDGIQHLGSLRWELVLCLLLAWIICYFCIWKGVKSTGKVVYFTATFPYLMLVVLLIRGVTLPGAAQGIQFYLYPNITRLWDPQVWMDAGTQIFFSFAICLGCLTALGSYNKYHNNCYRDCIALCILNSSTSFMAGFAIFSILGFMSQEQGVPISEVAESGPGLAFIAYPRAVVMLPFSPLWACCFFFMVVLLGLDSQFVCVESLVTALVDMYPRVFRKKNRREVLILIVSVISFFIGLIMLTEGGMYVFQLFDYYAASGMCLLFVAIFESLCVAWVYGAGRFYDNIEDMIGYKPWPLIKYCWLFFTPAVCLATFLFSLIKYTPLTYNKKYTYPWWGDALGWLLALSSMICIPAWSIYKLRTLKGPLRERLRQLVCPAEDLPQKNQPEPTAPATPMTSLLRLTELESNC
For each entry below, report its log10 of IC50 value.
Log10 applied to IC50; unit prior to transform: µM.

Answer for every listed entry: what is its log10 of IC50? The entries follow.
1. CN(CCOC(c1ccc(C(F)(F)F)cc1)c1ccc(C(F)(F)F)cc1)[C@H]1CCCC[C@H]1C(=O)O
2. CN(CCC=C1c2ccccc2CCc2ccccc21)C1CCCC=C1C(=O)O (stereo not given)
3. CN(CCON=C(c1ccccc1)c1ccccc1)CCC(=O)O
4. CN(CCOC(c1ccc(C(F)(F)F)cc1)c1ccc(C(F)(F)F)cc1)[C@@H]1CCCC[C@H]1C(=O)O
5. COc1ccccc1C1(O)CCN(CCCn2c3ccccc3c3ccccc32)CC1
6. CCOC(=O)[C@@H]1CCCC[C@@H]1N(C)CCC=C(c1sccc1C)c1sccc1C
7. CCCCN1CCN(CCC=C(c2sccc2C)c2sccc2C)CC(C(=O)O)C1 (stereo not given)

Found:
2.59
2.84
2.83
2.59
1.61
2.78
2.81

====

target: Sodium- and chloride-dependent GABA transporter 1 (Mus musculus, UniProt P31648); experiment: Inhibition of mouse mGAT1 expressed in HEK293 cells assessed as inhibition of [3H]GABA uptake after 3 mins incubation by TopCount microplate scintillation counting analysis; type: cell-based; settings: read-out: IC50
IC50 strictly less than 300 µM = condition met. Otherwise condition not met.

Below are worked cases with known answers.
compound	assigned_class
CCN1CCNC(C(=O)O)C1 (racemic)	condition not met
Cc1ccsc1C(=CCCN1CCNC(C(=O)O)C1)c1sccc1C (racemic)	condition met

Lookup: Is IC50 strictly under 300 µM for the entry CN(CCON=C(c1ccccc1)c1ccccc1)[C@@H]1CCCC[C@H]1C(=O)O ?
Found: condition not met

Lookup: Is IC50 strictly under 300 µM for the entry CCOC(=O)[C@H]1CCCC[C@H]1N(C)CCC=C(c1sccc1C)c1sccc1C ?
Found: condition not met

Lookup: Is IC50 strictly under 300 µM for the entry Cc1ccsc1C(=CCCNCCC(=O)O)c1sccc1C ?
Found: condition met

====

For each entry below, report its IC50 value.
biological target: GABA transporter 4 (Mus musculus); assay: Inhibition of mouse mGAT4 expressed in HEK293 cells assessed as inhibition of [3H]GABA uptake after 3 mins incubation by TopCount microplate scintillation counting analysis; format: cell-based; details: read-out: IC50

Solved cases (3 shown):
compound	assay_target	IC50
O=C(O)C1CNCCN(CCON=C(c2ccccc2)c2ccccc2)C1 (centres undefined)	GABA transporter 4 (Mus musculus)	> 1000 µM
Cc1ccsc1C(=CCCN1CCN(CCON=C(c2ccccc2)c2ccccc2)CC(C(=O)O)C1)c1sccc1C (centres undefined)	GABA transporter 4 (Mus musculus)	> 1000 µM
Cc1ccsc1C(=CCCN1CCN(CCO)CC(C(=O)O)C1)c1sccc1C (centres undefined)	GABA transporter 4 (Mus musculus)	> 1000 µM

Tested on GABA transporter 4 (Mus musculus), the item CCN1CCN(CCC=C(c2sccc2C)c2sccc2C)CC(C(=O)O)C1 (centres undefined) showed IC50 equal to > 1000 µM

====

target: GABA transporter 4 (Mus musculus, UniProt P31650); test: Inhibition of mouse mGAT4 expressed in HEK293 cells assessed as inhibition of [3H]GABA uptake after 3 mins incubation by TopCount microplate scintillation counting analysis; type: cell-based; conditions: read-out: IC50
Sequence (P31650 whole entry): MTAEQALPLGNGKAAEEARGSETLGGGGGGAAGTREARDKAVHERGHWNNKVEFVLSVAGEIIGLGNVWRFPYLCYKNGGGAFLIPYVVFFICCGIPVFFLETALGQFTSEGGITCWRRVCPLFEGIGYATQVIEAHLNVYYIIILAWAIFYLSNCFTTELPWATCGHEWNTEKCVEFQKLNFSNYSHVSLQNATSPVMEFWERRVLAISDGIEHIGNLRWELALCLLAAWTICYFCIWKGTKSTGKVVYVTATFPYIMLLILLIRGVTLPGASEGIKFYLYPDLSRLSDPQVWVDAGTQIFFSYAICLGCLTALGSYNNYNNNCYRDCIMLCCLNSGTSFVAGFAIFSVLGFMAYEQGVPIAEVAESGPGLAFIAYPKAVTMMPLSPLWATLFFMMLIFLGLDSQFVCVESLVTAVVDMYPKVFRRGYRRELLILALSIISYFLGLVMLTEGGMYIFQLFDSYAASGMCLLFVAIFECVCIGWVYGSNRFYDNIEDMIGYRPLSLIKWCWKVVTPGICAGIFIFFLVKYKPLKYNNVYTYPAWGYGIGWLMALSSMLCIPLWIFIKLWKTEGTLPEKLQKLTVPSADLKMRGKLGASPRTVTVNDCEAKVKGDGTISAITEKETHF
pIC50: −log10 of the molar value.
value_kind: pIC50

Solved cases (5 shown):
compound	assay_target	pIC50
O=C(O)C1CN(CCON=C(c2ccccc2)c2ccccc2)CCN1 (racemic)	GABA transporter 4 (Mus musculus, UniProt P31650)	< 3.00
CCCCN1CCN(CCON=C(c2ccccc2)c2ccccc2)CC(C(=O)O)C1 (stereo unspecified)	GABA transporter 4 (Mus musculus, UniProt P31650)	< 3.00
CCN1CCN(CCON=C(c2ccccc2)c2ccccc2)CC(C(=O)O)C1 (stereo unspecified)	GABA transporter 4 (Mus musculus, UniProt P31650)	< 3.00
Cc1ccsc1C(=CCCN1CCNC(C(=O)O)C1)c1sccc1C (racemic)	GABA transporter 4 (Mus musculus, UniProt P31650)	< 3.00
CN(CCON=C(c1ccccc1)c1ccccc1)[C@@H]1CCCC[C@H]1C(=O)O (racemic)	GABA transporter 4 (Mus musculus, UniProt P31650)	< 2.70

Let us move to another entry and its pIC50.
Entry CCN1CCNCC1C(=O)O (racemic) — recorded pIC50 = < 3.00

====

target: GABA transporter 4 (Mus musculus, UniProt P31650); experiment: Inhibition of mouse mGAT4 expressed in HEK293 cells assessed as inhibition of [3H]GABA uptake after 3 mins incubation by TopCount microplate scintillation counting analysis; format: cell-based; conditions: read-out: IC50
pIC50: −log10 of the molar value.
value_kind: pIC50

Answer for every listed entry: what is its pIC50? The entries follow.
1. CN(CCCP(=O)(O)O)CCON=C(c1ccccc1)c1ccccc1
2. O=C(O)C1CNCCN1CCON=C(c1ccccc1)c1ccccc1 (racemic)
3. CN(CCCS(=O)(=O)O)CCON=C(c1ccccc1)c1ccccc1
4. Cc1ccsc1C(=CCCN1CCN(Cc2ccccc2)CC(C(=O)O)C1)c1sccc1C (stereo unspecified)
5. CN(CCON=C(c1ccccc1)c1ccccc1)[C@@H]1CCCC[C@@H]1C(=O)O
6. O=C(O)C1CN(CCO)CCN(CCON=C(c2ccccc2)c2ccccc2)C1 (stereo unspecified)

Found:
["< 3.00", "< 3.00", "< 3.00", "< 3.00", "< 3.00", "< 3.00"]

====

For each entry below, report its pIC50 value.
target: GABA transporter 4 (Mus musculus, UniProt P31650); assay: Inhibition of mouse mGAT4 expressed in HEK293 cells assessed as inhibition of [3H]GABA uptake after 3 mins incubation by TopCount microplate scintillation counting analysis; type: cell-based; settings: read-out: IC50
pIC50: −log10 of the molar value.

Solved cases (6 shown):
compound	pIC50
CN(CCOC(c1ccc(C(F)(F)F)cc1)c1ccc(C(F)(F)F)cc1)C1CCCC=C1C(=O)O (configuration not stated)	< 3.00
Cc1ccsc1C(=CCCN1CCN(C(=N)N)CC(C(=O)O)C1)c1sccc1C (configuration not stated)	< 3.00
CN(CCC=C1c2ccccc2CCc2ccccc21)CCCP(=O)(O)O	< 3.00
CN(CCON=C(c1ccccc1)c1ccccc1)C1CCCC=C1C(=O)O (configuration not stated)	< 2.70
O=C(O)CCNCc1cn(CCOC(c2ccc(C(F)(F)F)cc2)c2ccc(C(F)(F)F)cc2)nn1	< 3.00
Cc1ccsc1C(=CCCn1cc(CNCCC(=O)O)nn1)c1sccc1C	< 2.70

Entry CCN1CCNC(C(=O)O)C1 (racemic) — recorded pIC50 = < 3.00
